- Method summary: Particle size distribution of ORZY-05 by static automated imaging (Morphologi 4)
- Format: physicochemical
- Assay setup: ORZY-05 particles
Listed here: items and their measured Number CE Diameter D90.
Remember to follow the number with its unit.

For orientation, consider the following solved cases.
> print(dat)
                                   compound  data.value
1  O=C(O)CC(O)(CC(=O)O)C(=O)O.[O-][n+]1cccc(/C(Cl)=N/OC[C@H](O)CN2CCCCC2)c1 [compound 1001, arimoclomol citrate]    17.81 μm
2  O=C(O)CC(O)(CC(=O)O)C(=O)O.[O-][n+]1cccc(/C(Cl)=N/OC[C@H](O)CN2CCCCC2)c1 [compound 1004, arimoclomol citrate]    13.33 μm

Let's switch to this compound now.
In: What does the record list as Number CE Diameter D90 for O=C(O)CC(O)(CC(=O)O)C(=O)O.[O-][n+]1cccc(/C(Cl)=N/OC[C@H](O)CN2CCCCC2)c1 [compound 1003, arimoclomol citrate] ?
Out: 14.14 μm

* * *

- Method summary: Particle size distribution of ORZY-05 by Malvern Mastersizer 3000
- Type: physicochemical
- Assay setup: ORZY-05 particles, Malvern Mastersizer 3000, volume distribution
Threshold-based label: D50 under 30 μm gives fulfilled, D50 not under 30 μm gives not fulfilled.

Recorded results for 3 compounds are shown here.
> print(dat)
                                   compound  classification
1  O=C(O)CC(O)(CC(=O)O)C(=O)O.[O-][n+]1cccc(/C(Cl)=N/OC[C@H](O)CN2CCCCC2)c1 [compound 2006, arimoclomol citrate]   not fulfilled
2  O=C(O)CC(O)(CC(=O)O)C(=O)O.[O-][n+]1cccc(/C(Cl)=N/OC[C@H](O)CN2CCCCC2)c1 [compound 1003, arimoclomol citrate]       fulfilled
3  O=C(O)CC(O)(CC(=O)O)C(=O)O.[O-][n+]1cccc(/C(Cl)=N/OC[C@H](O)CN2CCCCC2)c1 [compound 2005, arimoclomol citrate]   not fulfilled

In: Please indicate whether the reported D50 of O=C(O)CC(O)(CC(=O)O)C(=O)O.[O-][n+]1cccc(/C(Cl)=N/OC[C@H](O)CN2CCCCC2)c1 [compound 2004, arimoclomol citrate] is strictly below 30 μm.
Out: not fulfilled

In: Now the compound O=C(O)CC(O)(CC(=O)O)C(=O)O.[O-][n+]1cccc(/C(Cl)=N/OC[C@H](O)CN2CCCCC2)c1 [compound 1004, arimoclomol citrate]
Out: fulfilled

* * *

Below, each entry is listed alongside its reported Number CE Diameter D90.
- Method summary: Particle size distribution of ORZY-05 by static automated imaging (Morphologi 4)
- Assay type: physicochemical
- Assay setup: ORZY-05 particles
Show the value, then the unit it is measured in.

> print(dat)
                                   compound         recorded.metric  data.value
1  O=C(O)CC(O)(CC(=O)O)C(=O)O.[O-][n+]1cccc(/C(Cl)=N/OC[C@H](O)CN2CCCCC2)c1 [17-003, arimoclomol citrate]  Number CE Diameter D90     5.80 μm
2  O=C(O)CC(O)(CC(=O)O)C(=O)O.[O-][n+]1cccc(/C(Cl)=N/OC[C@H](O)CN2CCCCC2)c1 [17-001, arimoclomol citrate]  Number CE Diameter D90     9.40 μm

Next compound, please.
In: Report Number CE Diameter D90 for O=C(O)CC(O)(CC(=O)O)C(=O)O.[O-][n+]1cccc(/C(Cl)=N/OC[C@H](O)CN2CCCCC2)c1 [18-001, arimoclomol citrate] please.
Out: 10.70 μm
